# system-under-test: SUMO-conjugating enzyme UBC9 (Homo sapiens) (UniProt P63279)
# Sequence (P63279 whole entry, looked up): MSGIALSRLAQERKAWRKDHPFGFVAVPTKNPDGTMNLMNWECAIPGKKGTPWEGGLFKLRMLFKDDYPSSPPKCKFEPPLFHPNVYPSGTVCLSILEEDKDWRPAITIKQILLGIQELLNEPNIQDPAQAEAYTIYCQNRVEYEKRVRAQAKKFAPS
# procedure-details: potency of SUMOylation cascade inhibitors, SAR follow-up, biochemical, HTRF, set 2 (AID 485337)
# measurement-parameters: in vitro SUMOylation, HTRF read-out
The source made the active and inactive calls. No rule for the calls is given here.
Outcomes: t for active, f for inactive

[[record]]
compound = "COc1ccc2c(c1)C(=O)C(=O)N2CCN1CCOCC1"
system_under_test = "SUMO-conjugating enzyme UBC9 (Homo sapiens) (UniProt P63279)"
assigned_label = "f"

[[record]]
compound = "CCCN1C(=O)C(NC(C)=O)c2cc(OC)ccc21 (centres undefined)"
system_under_test = "SUMO-conjugating enzyme UBC9 (Homo sapiens) (UniProt P63279)"
assigned_label = "f"

[[record]]
compound = "COc1ccc2c(c1)C(NC(C)=O)C(=O)N2CCc1ccccc1 (centres undefined)"
system_under_test = "SUMO-conjugating enzyme UBC9 (Homo sapiens) (UniProt P63279)"
assigned_label = "f"

[[record]]
compound = "CC(=O)NC1C(=O)N(CCN2CCOCC2)c2ccc(C)cc21 (centres undefined)"
system_under_test = "SUMO-conjugating enzyme UBC9 (Homo sapiens) (UniProt P63279)"
assigned_label = "f"

[[record]]
compound = "CCCCn1c(NC(=O)c2ccccc2Cl)c(S(=O)(=O)c2ccccc2)c2nc3ccccc3nc21"
system_under_test = "SUMO-conjugating enzyme UBC9 (Homo sapiens) (UniProt P63279)"
assigned_label = "t"

[[record]]
compound = "CCCCn1c(NC(=O)c2ccco2)c(S(=O)(=O)c2ccc(C)cc2)c2nc3ccccc3nc21"
system_under_test = "SUMO-conjugating enzyme UBC9 (Homo sapiens) (UniProt P63279)"
assigned_label = "t"

[[record]]
compound = "COc1ccc2c(c1)C(NC(C)=O)C(=O)N2CCN1CCOCC1 (centres undefined)"
system_under_test = "SUMO-conjugating enzyme UBC9 (Homo sapiens) (UniProt P63279)"
assigned_label = "t"

[[record]]
compound = "COc1cc(/C=C2\\C(=O)N(c3ccccc3)N=C2C)ccc1OCc1ccccc1"
system_under_test = "SUMO-conjugating enzyme UBC9 (Homo sapiens) (UniProt P63279)"
assigned_label = "f"

[[record]]
compound = "N#Cc1c(NC(=O)c2ccccc2Cl)n(Cc2ccccc2)c2nc3ccccc3nc12"
system_under_test = "SUMO-conjugating enzyme UBC9 (Homo sapiens) (UniProt P63279)"
assigned_label = "t"

[[record]]
compound = "Nc1c(C(=O)NCc2ccco2)c2nc3ccccc3nc2n1Cc1ccccc1"
system_under_test = "SUMO-conjugating enzyme UBC9 (Homo sapiens) (UniProt P63279)"
assigned_label = "t"

[[record]]
compound = "CCCCn1c(N)c(S(=O)(=O)c2ccc(C)cc2)c2nc3ccccc3nc21"
system_under_test = "SUMO-conjugating enzyme UBC9 (Homo sapiens) (UniProt P63279)"
assigned_label = "t"

[[record]]
compound = "CCCCNC(=O)c1c(NC(=O)c2ccccc2)n(Cc2ccccc2)c2nc3ccccc3nc12"
system_under_test = "SUMO-conjugating enzyme UBC9 (Homo sapiens) (UniProt P63279)"
assigned_label = "t"

[[record]]
compound = "COCCn1c(NC(=O)c2ccc(Cl)cc2)c(S(=O)(=O)c2ccc(C)cc2)c2nc3ccccc3nc21"
system_under_test = "SUMO-conjugating enzyme UBC9 (Homo sapiens) (UniProt P63279)"
assigned_label = "t"

[[record]]
compound = "CCCCn1c(NC(=O)CC)c(S(=O)(=O)c2ccc(C)cc2)c2nc3ccccc3nc21"
system_under_test = "SUMO-conjugating enzyme UBC9 (Homo sapiens) (UniProt P63279)"
assigned_label = "f"

[[record]]
compound = "CCCCn1c(NC(C)=O)c(C#N)c2nc3ccccc3nc21"
system_under_test = "SUMO-conjugating enzyme UBC9 (Homo sapiens) (UniProt P63279)"
assigned_label = "t"

[[record]]
compound = "CCCCn1c(NC(=O)c2ccccc2)c(S(=O)(=O)c2ccc(C)cc2)c2nc3ccccc3nc21"
system_under_test = "SUMO-conjugating enzyme UBC9 (Homo sapiens) (UniProt P63279)"
assigned_label = "f"

[[record]]
compound = "CCCCn1c(NC(=O)c2ccc(Cl)cc2)c(C#N)c2nc3ccccc3nc21"
system_under_test = "SUMO-conjugating enzyme UBC9 (Homo sapiens) (UniProt P63279)"
assigned_label = "t"

[[record]]
compound = "N#Cc1c(NC(=O)c2ccccc2Cl)n(C2CCCCC2)c2nc3ccccc3nc12"
system_under_test = "SUMO-conjugating enzyme UBC9 (Homo sapiens) (UniProt P63279)"
assigned_label = "t"

[[record]]
compound = "CCCCn1c(NC(=O)c2ccco2)c(C#N)c2nc3ccccc3nc21"
system_under_test = "SUMO-conjugating enzyme UBC9 (Homo sapiens) (UniProt P63279)"
assigned_label = "t"

[[record]]
compound = "CCCCCn1c(NC(=O)c2ccco2)c(C(=O)OCC)c2nc3ccccc3nc21"
system_under_test = "SUMO-conjugating enzyme UBC9 (Homo sapiens) (UniProt P63279)"
assigned_label = "t"

[[record]]
compound = "COCCNC(=O)c1c(NC(=O)c2ccccc2)n(Cc2ccccc2)c2nc3ccccc3nc12"
system_under_test = "SUMO-conjugating enzyme UBC9 (Homo sapiens) (UniProt P63279)"
assigned_label = "t"

[[record]]
compound = "S=c1[nH]nc(-c2cc(-c3ccccc3)n[nH]2)n1N=Cc1ccc(Br)s1"
system_under_test = "SUMO-conjugating enzyme UBC9 (Homo sapiens) (UniProt P63279)"
assigned_label = "f"

[[record]]
compound = "COc1cc(/C=C2\\C(=O)N(c3ccccc3)N=C2C)ccc1OC(=O)c1cccs1"
system_under_test = "SUMO-conjugating enzyme UBC9 (Homo sapiens) (UniProt P63279)"
assigned_label = "f"

[[record]]
compound = "Cc1cc(C)c2c(c1)C(=O)C(=O)N2CCN1CCOCC1"
system_under_test = "SUMO-conjugating enzyme UBC9 (Homo sapiens) (UniProt P63279)"
assigned_label = "f"

[[record]]
compound = "CCCCn1c(NC(=O)c2ccccc2)c(C#N)c2nc3ccccc3nc21"
system_under_test = "SUMO-conjugating enzyme UBC9 (Homo sapiens) (UniProt P63279)"
assigned_label = "t"

[[record]]
compound = "COc1ccc2c(c1)C(NC(C)=O)C(=O)N2CC1COc2ccccc2O1 (centres undefined)"
system_under_test = "SUMO-conjugating enzyme UBC9 (Homo sapiens) (UniProt P63279)"
assigned_label = "f"

[[record]]
compound = "COc1ccc(CN2C(=O)C(NC(C)=O)c3ccccc32)cc1 (centres undefined)"
system_under_test = "SUMO-conjugating enzyme UBC9 (Homo sapiens) (UniProt P63279)"
assigned_label = "f"

[[record]]
compound = "COc1cc(/C=C2\\C(=O)N(c3ccccc3)N=C2C)ccc1O"
system_under_test = "SUMO-conjugating enzyme UBC9 (Homo sapiens) (UniProt P63279)"
assigned_label = "f"

[[record]]
compound = "COc1ccc2c(c1)C(NC(C)=O)C(=O)N2CCOc1ccccc1 (centres undefined)"
system_under_test = "SUMO-conjugating enzyme UBC9 (Homo sapiens) (UniProt P63279)"
assigned_label = "f"

